TARGET: Recombinant human FcRn (FcRn alpha and beta2-microglobulin) (human, UniProt P55899 24-290; P61769 21-119)
Sequence (P55899 24-290, chain 1 of 2): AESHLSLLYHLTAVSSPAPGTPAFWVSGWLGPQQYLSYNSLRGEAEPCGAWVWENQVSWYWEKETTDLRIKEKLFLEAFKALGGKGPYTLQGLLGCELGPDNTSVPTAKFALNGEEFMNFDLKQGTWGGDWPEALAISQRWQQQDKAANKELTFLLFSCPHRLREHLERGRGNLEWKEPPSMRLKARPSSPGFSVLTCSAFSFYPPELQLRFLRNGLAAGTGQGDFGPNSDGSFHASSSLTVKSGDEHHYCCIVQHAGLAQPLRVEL
Sequence (P61769 21-119, chain 2 of 2): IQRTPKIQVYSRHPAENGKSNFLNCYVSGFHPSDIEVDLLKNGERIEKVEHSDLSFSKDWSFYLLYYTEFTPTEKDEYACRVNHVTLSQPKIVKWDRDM
ASSAY METHOD TEXT: SPR; produced in HEK
pKd: −log10 of the molar value.
Recorded pKd for the following binders
READOUT LABEL: pKd

| BINDER | QUANTITATIVE READOUT |
| --- | --- |
| A3A-105D (G316D/K326E/A378V) Fc fragment (other) DKTHTCPPCPAPELLGGPSVFLFPPKPKDTLMISRTPEVTCVVVDVSHEDPEVKFNWYVDGVEVHNAKTKPREEQYNSTYRVVSVLTVLHQDWLNDKEYKCKVSNEALPAPIEKTISKAKGQPREPQVYTLPPSRDELTKNQVSLTCLVKGFYPSDIVVEWESNGQPENNYKTTPPVLDSDGSFFLYSKLTVDKSRWQQGNVFSCSVMHEALHNHYTQKSLSLSPGK | 6.64 |
| A3A-184A (K334N/P352S/A378V/V397M) Fc fragment (other) DKTHTCPPCPAPELLGGPSVFLFPPKPKDTLMISRTPEVTCVVVDVSHEDPEVKFNWYVDGVEVHNAKTKPREEQYNSTYRVVSVLTVLHQDWLNGKEYKCKVSNKALPAPIENTISKAKGQPREPQVYTLSPSRDELTKNQVSLTCLVKGFYPSDIVVEWESNGQPENNYKTTPPMLDSDGSFFLYSKLTVDKSRWQQGNVFSCSVMHEALHNHYTQKSLSLSPGK | 7.93 |
| T5A-74K (K290Y/N315D/A330V/N361D/A378V/N434Y) Fc fragment (other) DKTHTCPPCPAPELLGGPSVFLFPPKPKDTLMISRTPEVTCVVVDVSHEDPEVKFNWYVDGVEVHNAKTYPREEQYNSTYRVVSVLTVLHQDWLDGKEYKCKVSNKALPVPIEKTISKAKGQPREPQVYTLPPSRDELTKDQVSLTCLVKGFYPSDIVVEWESNGQPENNYKTTPPVLDSDGSFFLYSKLTVDKSRWQQGNVFSCSVMHEALHYHYTQKSLSLSPGK | 7.78 |
